target.or.system: human Nav1.8 (Homo sapiens, UniProt Q9Y5Y9)
Sequence (Q9Y5Y9 whole entry): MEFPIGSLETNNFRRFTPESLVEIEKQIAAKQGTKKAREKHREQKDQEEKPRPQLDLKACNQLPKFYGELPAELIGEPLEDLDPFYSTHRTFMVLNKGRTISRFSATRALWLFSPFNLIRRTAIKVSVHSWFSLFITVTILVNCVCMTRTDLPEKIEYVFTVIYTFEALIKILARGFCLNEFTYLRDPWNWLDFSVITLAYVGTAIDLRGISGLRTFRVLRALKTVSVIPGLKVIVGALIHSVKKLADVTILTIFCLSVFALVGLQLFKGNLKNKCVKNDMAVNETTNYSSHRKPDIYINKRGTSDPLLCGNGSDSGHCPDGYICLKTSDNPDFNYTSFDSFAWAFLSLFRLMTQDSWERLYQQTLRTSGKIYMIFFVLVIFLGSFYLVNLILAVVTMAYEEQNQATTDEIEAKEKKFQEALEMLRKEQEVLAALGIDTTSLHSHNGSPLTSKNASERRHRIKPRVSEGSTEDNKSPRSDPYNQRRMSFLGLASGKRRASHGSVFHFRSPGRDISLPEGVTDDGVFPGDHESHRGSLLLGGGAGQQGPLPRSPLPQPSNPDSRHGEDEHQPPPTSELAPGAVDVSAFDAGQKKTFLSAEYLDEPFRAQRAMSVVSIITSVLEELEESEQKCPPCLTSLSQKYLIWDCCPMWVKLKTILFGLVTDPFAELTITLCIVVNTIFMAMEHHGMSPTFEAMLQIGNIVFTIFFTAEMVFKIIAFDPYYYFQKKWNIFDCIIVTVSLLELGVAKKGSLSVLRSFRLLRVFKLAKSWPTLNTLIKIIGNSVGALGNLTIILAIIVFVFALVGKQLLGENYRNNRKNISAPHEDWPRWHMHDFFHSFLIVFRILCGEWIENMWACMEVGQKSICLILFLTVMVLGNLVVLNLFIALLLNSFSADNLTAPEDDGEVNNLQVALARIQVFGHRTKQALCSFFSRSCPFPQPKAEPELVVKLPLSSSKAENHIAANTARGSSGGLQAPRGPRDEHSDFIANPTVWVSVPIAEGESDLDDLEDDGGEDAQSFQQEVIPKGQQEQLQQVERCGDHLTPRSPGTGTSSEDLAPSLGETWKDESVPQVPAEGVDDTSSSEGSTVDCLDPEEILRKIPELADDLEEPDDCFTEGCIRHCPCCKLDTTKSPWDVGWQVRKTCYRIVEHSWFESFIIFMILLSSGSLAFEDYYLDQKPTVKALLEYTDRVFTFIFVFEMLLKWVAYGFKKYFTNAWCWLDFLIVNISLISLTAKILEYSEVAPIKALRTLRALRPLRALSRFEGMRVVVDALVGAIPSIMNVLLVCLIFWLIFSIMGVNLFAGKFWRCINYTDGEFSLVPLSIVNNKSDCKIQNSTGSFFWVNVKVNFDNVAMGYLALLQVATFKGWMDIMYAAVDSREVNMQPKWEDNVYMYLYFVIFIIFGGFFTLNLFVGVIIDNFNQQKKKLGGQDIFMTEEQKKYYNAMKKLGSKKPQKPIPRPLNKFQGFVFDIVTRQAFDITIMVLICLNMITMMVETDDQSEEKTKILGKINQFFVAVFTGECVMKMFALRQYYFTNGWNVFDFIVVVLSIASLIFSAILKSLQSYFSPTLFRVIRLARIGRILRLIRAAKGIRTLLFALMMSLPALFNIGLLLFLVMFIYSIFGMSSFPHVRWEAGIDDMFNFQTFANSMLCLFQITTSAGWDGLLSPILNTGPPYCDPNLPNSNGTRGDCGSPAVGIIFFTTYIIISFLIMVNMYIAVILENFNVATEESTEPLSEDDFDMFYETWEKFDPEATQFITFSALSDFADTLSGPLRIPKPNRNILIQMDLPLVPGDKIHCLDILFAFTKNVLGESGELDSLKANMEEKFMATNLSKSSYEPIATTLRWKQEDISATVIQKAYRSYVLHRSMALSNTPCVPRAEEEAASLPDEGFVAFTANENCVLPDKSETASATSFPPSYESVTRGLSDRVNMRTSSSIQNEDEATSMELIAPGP
assay.info: SyncroPatch384PE assay (automated patch clamp)
Assay type: cell-based
assay.context: resting state block (P1 measurement), human Nav1.8/b3 CHO cells, read-out: P1 IC50
assay.endpoint: IC50

Sample records with IC50:
Cc1nc(N2CCC3(CC2)CC3)c(C(=O)Nc2cccc([S@@](C)(=N)=O)c2)cc1Cl [Example 27] ... ≤ 5 nM
COc1ccc(-c2nnc(N3CCCC(F)(F)CC3)c(C(=O)Nc3cccc([S@](C)(=N)=O)c3)c2C)cc1 (single isomer, unassigned) [Example 138] ... > 200 nM
Cc1c(C(=O)Nc2cccc([S@](C)(=N)=O)c2)c(N2CCCC(F)(F)CC2)nc(C(F)(F)F)c1-c1ccc(C#N)cc1 [Example 131] ... ≤ 5 nM

Here are 4 compounds. What values of IC50 were reported for them?
1. Cc1c(C(F)(F)F)nnc(N2CCCCCC2)c1C(=O)N=S(C)(=O)c1cccc(N)c1 (centres unmarked) [Example 8]
2. Cc1c(Cl)c(C(F)(F)F)nc(N2CCCC(F)(F)CC2)c1C(=O)Nc1cccc([S@](C)(=N)=O)c1 [Example 109]
3. Cc1nc(-c2cnn(C)c2)nc(N2CCCC(F)(F)CC2)c1C(=O)Nc1cccc([S@](C)(=N)=O)c1 [Example 150]
4. Cc1c(C(=O)Nc2cccc([S@@](C)(=O)=NC(=O)[C@@H]3CCCN3)c2)c(N2CCCC(F)(F)CC2)nc(C(F)(F)F)c1-c1cnn(C)c1 [Example 190]

> 200 nM
≤ 5 nM
100 to 200 nM
≤ 5 nM

Here are 6 compounds. What values of IC50 were reported for them?
1. Cc1c(-c2ccn(C)n2)cnc(N2CCCC(F)(F)CC2)c1C(=O)Nc1cccc(S(C)(=N)=O)c1 (centres unmarked) [Example 89]
2. CNCC(=O)N=[S@](C)(=O)c1cccc(NC(=O)c2c(N3CCCC(F)(F)CC3)nc(C(F)(F)F)c(C#N)c2C)c1 [Example 65]
3. Cc1c(C#N)cnc(N2CCCC(F)(F)CC2)c1C(=O)Nc1ccnc([S@](C)(=N)=O)c1 [Example 201]
4. Cc1c(-c2ccccc2)nnc(N2CCCC(F)(F)CC2)c1C(=O)Nc1cccc([S@](C)(=N)=O)c1 [Example 118]
5. O=C(Nc1ccnnc1)c1nnc(C(F)(F)F)cc1N1CCCC(F)(F)CC1 [Example 32]
6. C[S@@](=N)(=O)c1cccc(NC(=O)c2cc(Cl)c(C(F)(F)F)cc2N2CCO[C@H](C(F)(F)F)C2)c1 [Example 215]

100 to 200 nM
≤ 5 nM
5 to 50 nM
50 to 100 nM
> 200 nM
5 to 50 nM

# input compound: Cc1nc(N2CCC3(CC2)CC3)c(C(=O)Nc2cccc(S(C)(=N)=O)c2)cc1Cl (centres unmarked) [Example 12] ; wanted: its IC50 ≤ 5 nM

---

target.or.system: human Nav1.8 (Homo sapiens)
assay.info: SyncroPatch384PE assay (automated patch clamp)
Format: cell-based
assay.context: inactivated state block (P2 measurement), human Nav1.8/b3 CHO cells, read-out: P2 IC50
pIC50: −log10 of the molar value. Where a name gives a salt, the structure may show the parent alone.
For each of the compounds below, state its pIC50.

Sample records with pIC50:
Cc1c(C(F)(F)F)cnc(N2CCCC(F)(F)CC2)c1C(=O)Nc1ccnc([S@@](C)(=N)=O)c1 (single isomer, unassigned) [Example 188] ... ≥ 8.30
Cc1c(C#N)c(C(F)(F)F)nc(N2CCCC(F)(F)CC2)c1C(=O)Nc1cccc([S@](C)(=N)=O)c1 [Example 56] ... ≥ 8.30
Cc1c(-c2cnn(C)c2)cnc(N2CCCC(F)(F)CC2)c1C(=O)Nc1cccc([S@@](C)(=O)=NC(=O)[C@@H](C)N)c1 [Example 75] ... 7.30 to 8.30
Cc1c(-c2ccc(C#N)cc2)cnc(N2CCCC(F)(F)CC2)c1C(=O)Nc1cccc([S@@](C)(=O)=NC(=O)C(C)(C)N)c1 [Example 55] ... ≥ 8.30
Cc1c(C(F)(F)F)nnc(N2CCCC(F)(F)CC2)c1C(=O)Nc1cccc([S@@](C)(=O)=NC(=O)[C@@H](C)N)c1 [Example 183] ... ≥ 8.30

Here are 5 compounds. What values of pIC50 were reported for them?
1. Cc1c(-c2cnn(C)c2)cnc(N2CCCC(F)(F)CC2)c1C(=O)Nc1cccc([S@@](C)(=O)=NC(=O)C2CNC2)c1 [Example 51, formate]
2. Cc1c(C(F)(F)F)nnc(N2CCC3(CC2)CC3)c1C(=O)Nc1cccc(S(C)(=N)=O)c1 (stereo not drawn) [Example 94]
3. Cc1c(C(F)(F)F)nnc(N2CCCC(F)(F)CC2)c1C(=O)Nc1cccc([S@@](C)(=O)=NC(=O)[C@@H](C)O)c1 [Example 179]
4. C[S@@](=N)(=O)c1cc(NC(=O)c2cc(Cl)c(C(F)(F)F)cc2N2CCO[C@@H](C(F)(F)F)C2)ccn1 [Example 217]
5. C[S@@](=N)(=O)c1cccc(NC(=O)c2c(N3CCCC(F)(F)CC3)cnc(C(F)(F)F)c2Cl)c1 [Example 208]

["7.30 to 8.30", "< 6.70", "≥ 8.30", "7.00 to 7.30", "7.30 to 8.30"]

Here are 2 compounds. What values of pIC50 were reported for them?
1. Cc1c(-c2cnn(C(F)(F)F)c2)cnc(N2CCCC(F)(F)CC2)c1C(=O)Nc1cccc([S@](C)(=N)=O)c1 [Example 176]
2. Cc1nc(N2CC(F)(F)C2)nc(N2CCCC(F)(F)CC2)c1C(=O)Nc1cccc([S@](C)(=N)=O)c1 [Example 158]

["≥ 8.30", "7.00 to 7.30"]

---

target.or.system: human Nav1.8 (Homo sapiens, UniProt Q9Y5Y9)
assay.info: SyncroPatch384PE assay (automated patch clamp)
Assay type: cell-based
assay.context: inactivated state block (P2 measurement), human Nav1.8/b3 CHO cells, read-out: P2 IC50
Protocol: Compounds were tested on recombinant human Nav1.8/b3 stably transfected CHO cells using the SyncroPatch384PE system (Nanion Technologies), an automated patch clamp device. […] Whole cell patch clamp recordings were conducted according to Nanion's standard procedure for SyncroPatch384PE®. […] The potency of the compounds was assessed on two read-outs, resting state block (P1 measurement) or inactivated state block (P2 measurement) to obtain IC50 values. […]
assay.endpoint: IC50

Here are 2 molecules. What values of IC50 were reported for them?
1. Cc1c(C(F)(F)F)cnc(N2CCCC(F)(F)CC2)c1C(=O)Nc1cccc([S@@](C)(=O)=NC(=O)C(C)(C)N)c1
2. CNCC(=O)N=[S@](C)(=O)c1cccc(NC(=O)c2c(N3CCCC(F)(F)CC3)ncc(-c3ccc(F)c(F)c3)c2C)c1

1. ≤ 5 nM
2. ≤ 5 nM

Here are 2 molecules. What values of IC50 were reported for them?
1. Cc1c(-c2ccccc2)nnc(N2CCCC(F)(F)CC2)c1C(=O)Nc1cccc([S@](C)(=N)=O)c1
2. Cc1nn(C)cc1-c1cnc(N2CCCC(F)(F)CC2)c(C(=O)Nc2cccc([S@](C)(=N)=O)c2)c1C

1: 50 to 100 nM; 2: > 200 nM

Here are 8 molecules. What values of IC50 were reported for them?
1. Cc1ccnc(N2CCCC(F)(F)CC2)c1C(=O)Nc1cccc(S(C)(=N)=O)c1 (stereo not drawn)
2. Cc1nc(N2CCCC(F)(F)CC2)c(C(=O)Nc2cccc(S(C)(=N)=O)c2)cc1C(F)(F)F (stereo not drawn)
3. Cc1c(N2CC(F)(F)C2)cnc(N2CCCC(F)(F)CC2)c1C(=O)Nc1cccc([S@](C)(=N)=O)c1
4. Cc1c(-c2cccc(F)c2)cnc(N2CCCC(F)(F)CC2)c1C(=O)Nc1cccc([S@](C)(=N)=O)c1
5. Cc1c(C(F)(F)F)nnc(N2CCCC(F)(F)CC2)c1C(=O)Nc1cccc([S@@](C)(=O)=NC(=O)[C@H](C)O)c1
6. Cc1c(Cl)cnc(N2CCCC(F)(F)CC2)c1C(=O)Nc1cccc(S(C)(=N)=O)c1 (stereo not drawn)
7. C=CCCc1ccc(C(=O)Nc2cccc(S(C)(=N)=O)c2)c(N2CCCC(F)(F)CC2)n1 (stereo not drawn)
8. Cc1nc(N2CCNCC2)nc(N2CCCC(F)(F)CC2)c1C(=O)Nc1cccc([S@](C)(=N)=O)c1

1. 50 to 100 nM
2. ≤ 5 nM
3. 5 to 50 nM
4. ≤ 5 nM
5. ≤ 5 nM
6. ≤ 5 nM
7. ≤ 5 nM
8. > 200 nM

---

For each of the compounds below, state its pIC50.
target.or.system: UniProtKB Q9Y5Y9
assay.info: Sophion Qpatch II assay (automated patch clamp)
Assay type: cell-based
assay.context: resting state block (TP1 measurement), human Nav1.8 HEK293 cells, read-out: P1 IC50
pIC50: −log10 of the molar value.

Sample records with pIC50:
C[S@@](=N)(=O)c1cc(NC(=O)c2cc(Cl)c(C(F)(F)F)cc2N2CCC(C(F)(F)F)CC2)ccn1 ... 7.00 to 7.30
Cc1c(C(=O)Nc2cccc([S@](C)(=N)=O)c2)c(N2CCCC(F)(F)CC2)nc(C2CC2)c1C(F)(F)F ... 7.30 to 8.30
Cc1c(C(F)(F)F)cnc(N2CCO[C@H](C(F)(F)F)C2)c1C(=O)Nc1cccc([S@](C)(=N)=O)c1 ... 7.30 to 8.30
Cc1c(C(F)(F)F)cnc(N2CCCC(F)(F)CC2)c1C(=O)N[C@H]1C[C@H](C(=O)O)C1 ... 7.00 to 7.30

Next compound, please.
Record `C[S@](=N)(=O)c1cccc(NC(=O)c2cc(Cl)c(C(F)(F)F)cc2N2CCC(C(F)(F)F)CC2)c1` : what is its pIC50 with UniProtKB Q9Y5Y9? 7.00 to 7.30

From: patent US20250154109A1
